Give hAMY3R EC50 (cAMP) for every item shown.
Assay Target: T1, hAMY3R (human, UniProt P30988)
T1 sequence 1: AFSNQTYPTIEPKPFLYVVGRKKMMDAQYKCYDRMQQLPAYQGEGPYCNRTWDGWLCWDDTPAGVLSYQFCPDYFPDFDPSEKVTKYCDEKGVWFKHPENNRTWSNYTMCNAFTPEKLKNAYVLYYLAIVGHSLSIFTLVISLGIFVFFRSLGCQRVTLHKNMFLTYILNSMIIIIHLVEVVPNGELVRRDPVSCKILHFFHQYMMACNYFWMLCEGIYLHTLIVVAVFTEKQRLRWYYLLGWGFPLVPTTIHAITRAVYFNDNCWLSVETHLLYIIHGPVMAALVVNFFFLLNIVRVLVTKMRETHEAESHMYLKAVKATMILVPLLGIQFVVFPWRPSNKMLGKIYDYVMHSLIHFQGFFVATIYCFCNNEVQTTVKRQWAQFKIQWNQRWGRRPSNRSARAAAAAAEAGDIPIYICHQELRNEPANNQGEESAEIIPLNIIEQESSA
T1 sequence 2: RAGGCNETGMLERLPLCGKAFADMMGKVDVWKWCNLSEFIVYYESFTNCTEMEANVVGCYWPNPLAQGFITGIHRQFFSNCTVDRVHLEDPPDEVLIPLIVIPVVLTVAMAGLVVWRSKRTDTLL
Test Details: cell-based or functional assay
Numbered stars: 1 amine (or outer) side, 2 acyl side, 3 side chain; on linkers, the order of the positions; unused ones are H or OH. Bridge positions count the residues as written; N and C are the ends. Square brackets hold non-standard residues; d marks the D form. Ends that are not written are not given here. * marks the point of attachment. C20 diacid = O=C(O)CCCCCCCCCCCCCCCCCCC(=O)*; γGlu = O=C(O)[C@H](CCC(=O)[*:2])N[*:1]; Hyp = O=C(O)[C@@H]1C[C@@H](O)CN1; Cit = NC(=O)NCCC[C@H](N)C(=O)O
Write the numeric value and append its unit.

# input Item under review: GCRFGTCTVQ[Cit]LAHQIYQFTDKDKDNVAPRTNVGPQG[Hyp]-NH2 (disulfide 2-7 (inferred); ends not checked) [SEQ ID NO: 267] . Reported hAMY3R EC50 (cAMP)?
# output 0.007 nM

# input Look at this binder and give its reported hAMY3R EC50 (cAMP). GCRIGTCTVQRLAHQIYQFTNKDKDNVAPRSKISPQT[Hyp]-NH2 (disulfide 2-7 (inferred); ends not checked) [SEQ ID NO: 198]
# output 0.122 nM

# input GET /values?readout=hAMY3R EC50 (cAMP)&item= {C20 diacid-γGlu}-GCRFGTCTVQRLAHFLYQFTDKDKDNVAPRTNIGPQGY-NH2 (disulfide 2-7 (inferred); ends not checked) [SEQ ID NO: 388]
# output 0.043 nM

# input Find the recorded hAMY3R EC50 (cAMP) belonging to GCRTGTCTVQWLAHQIYQFTDKDKDNVAPRSNVGPQGY [SEQ ID NO: 346] and report it.
# output 0.085 nM

# input // hAMY3R EC50 (cAMP) lookup, key: KCNTATCTVQWLAHQIYQFTDKDKANVAPPTNVGSNG[Hyp]-NH2 (disulfide 2-7 (inferred); ends not checked) [SEQ ID NO: 314]
# output 0.008 nM

# input What hAMY3R EC50 (cAMP) value was documented for this binder, {C20 diacid-γGlu}-GCRFGTCTVQRLAHFLYQFTDKDKDNVAPRTKVGSNGY-NH2 (disulfide 2-7 (inferred); ends not checked) [SEQ ID NO: 223] ?
# output 0.186 nM

# input Would you mind telling me what hAMY3R EC50 (cAMP) value was observed for {C20 diacid-γGlu}-GCRFATCTVQRLAHQIYQFTDKDKDNVAPRTKVGPQGY-NH2 (disulfide 2-7 (inferred); ends not checked) [SEQ ID NO: 380] ?
# output 0.031 nM

# input Query: hAMY3R EC50 (cAMP); subject: GCRFGTCTVQRLAHQIYQFTDKDKDNVAPRSKIGPQG[Hyp]-NH2 (disulfide 2-7 (inferred); ends not checked) [SEQ ID NO: 127]
# output 0.028 nM

# input Name the recorded hAMY3R EC50 (cAMP) for {C20 diacid-γGlu}-KCNTATCTVQRLAHQIAQFADKDKDNVAPPTNVGSNG[Hyp]-NH2 (disulfide 2-7 (inferred); ends not checked) [SEQ ID NO: 105] .
# output 0.018 nM

Attribution: patent US12139520B2
